Measured values drawn from patent US9346811B2 for this set.

log10(IC50) overview
target: recombinant BACE1 protein (Homo sapiens); test: Biochemical FRET based assay; conditions: recombinant BACE1 1 μg/ml, 120 min, pH 5.0; read-out: Biochemical FRET based assay pIC50 (converted)
Sequence (P56817 46-501): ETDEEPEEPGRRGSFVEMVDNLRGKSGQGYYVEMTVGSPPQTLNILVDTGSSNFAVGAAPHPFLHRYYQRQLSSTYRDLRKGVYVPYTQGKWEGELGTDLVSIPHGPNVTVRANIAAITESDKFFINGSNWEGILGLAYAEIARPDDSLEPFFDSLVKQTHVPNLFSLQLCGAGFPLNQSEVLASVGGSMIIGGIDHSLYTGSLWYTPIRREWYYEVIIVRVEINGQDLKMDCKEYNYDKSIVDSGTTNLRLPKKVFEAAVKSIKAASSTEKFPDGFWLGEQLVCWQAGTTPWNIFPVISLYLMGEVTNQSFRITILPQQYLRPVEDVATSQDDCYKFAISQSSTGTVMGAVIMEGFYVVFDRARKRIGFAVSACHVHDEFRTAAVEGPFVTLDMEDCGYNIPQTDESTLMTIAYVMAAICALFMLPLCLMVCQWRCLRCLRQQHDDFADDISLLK
Structures can show the parent of a compound that is named as a salt.
endpoint.name: log10(IC50) (log10 of the value in nM)

{"compound": "CC1(c2cccc(NC(=O)c3ncc(Cl)cc3Cl)c2)Cn2nccc2C(N)=N1 (racemic) [Compound 3]", "val": 1.67}
{"compound": "CC1(c2cc(NC(=O)c3ncc(Cl)cc3Cl)ccc2F)Cn2nccc2C(N)=N1 (single isomer, unassigned) [Compound 16]", "val": 3.02}
{"compound": "CC1(c2cccc(NC(=O)c3ncc(Cl)cc3Cl)c2)Cn2nc(C(F)(F)F)cc2C(N)=N1 (racemic) [Compound 10]", "val": 1.80}
{"compound": "COc1cnc(C(=O)Nc2ccc(F)c(C3(C(F)F)Cn4nccc4C(N)=N3)c2)cn1 (single isomer, unassigned) [Compound 18]", "val": 1.35}
{"compound": "C[C@@]1(c2cc(NC(=O)c3ccc(F)cn3)ccc2F)Cn2nc(C#N)cc2C(N)=N1", "val": 1.51}
{"compound": "CC1(c2cccc(NC(=O)c3ncc(Cl)cc3Cl)c2)Cn2nccc2C(N)=N1 (single isomer, unassigned) [Compound 4]", "val": 4.33}
{"compound": "C[C@@]1(c2cccc(-c3cncc(Cl)c3)c2)Cn2nccc2C(N)=N1 [Compound 1, trifluoroacetate salt]", "val": 2.72}
{"compound": "CC1(c2cccc(NC(=O)c3ccc(C#N)cn3)c2)Cn2ncc(Br)c2C(N)=N1 (racemic)", "val": 3.90}
{"compound": "NC1=NC(c2cc(NC(=O)c3ccc(F)cn3)ccc2F)(C(F)F)Cn2nccc21 (racemic) [Compound 20]", "val": 1.82}
{"compound": "CC1(c2cccc(NC(=O)c3ccc(Cl)cn3)c2)Cn2nccc2C(N)=N1 (racemic)", "val": 1.92}
{"compound": "C[C@@]1(c2cc(NC(=O)c3ccc(F)cn3)ccc2F)Cn2nc(C(F)F)cc2C(N)=N1", "val": 1.78}
{"compound": "COc1cnc(C(=O)Nc2ccc(F)c([C@]3(C)Cn4nc(C#N)cc4C(N)=N3)c2)cn1", "val": 1.60}
{"compound": "CC1(c2cccc(NC(=O)c3ncc(Cl)cc3Cl)c2)Cn2nccc2C(N)=N1 (single isomer, unassigned) [Compound 5]", "val": 1.57}
{"compound": "CC1(c2cccc(NC(=O)c3ncc(Cl)cc3Cl)c2)Cn2nc(C(F)(F)F)cc2C(N)=N1 (single isomer, unassigned) [Compound 11]", "val": 1.45}
{"compound": "COc1cnc(C(=O)Nc2ccc(F)c(C3(C(F)F)Cn4nccc4C(N)=N3)c2)cn1 (racemic) [Compound 17]", "val": 1.76}
{"compound": "CC1(c2cccc(NC(=O)c3ncc(Cl)cc3Cl)c2)Cn2nc(C(F)(F)F)cc2C(N)=N1 (single isomer, unassigned) [Compound 12]", "val": 3.94}
{"compound": "CC1(c2cc(NC(=O)c3ncc(Cl)cc3Cl)ccc2F)Cn2nccc2C(N)=N1 (single isomer, unassigned) [Compound 15]", "val": 1.27}

----------
system: Aβtotal produced and secreted into the medium of human neuroblastoma SKNBE2 cells; experiment: Cellular αlisa assay in SKNBE2 cells, Aβtotal; type: cell-based; conditions: SKNBE2 cells expressing hAPP695, 18 hours incubation
endpoint.name: Cellular αlisa assay in SKNBE2 cells Aβtotal pIC50

{"molecule": "COc1cnc(C(=O)Nc2ccc(F)c(C3(C(F)F)Cn4nccc4C(N)=N3)c2)cn1 (single isomer, unassigned) [Compound 19]", "val": 5.13}
{"molecule": "COc1cnc(C(=O)Nc2ccc(F)c(C3(C)Cn4ncc(Cl)c4C(N)=N3)c2)cn1 (stereo not shown) [Compound 37]", "val": 6.07}
{"molecule": "NC1=NC(c2cc(NC(=O)c3ccc(F)cn3)ccc2F)(C(F)F)Cn2nccc21 (single isomer, unassigned) [Compound 22]", "val": 7.21}
{"molecule": "CC1(c2cc(NC(=O)c3ccc(F)cn3)ccc2F)Cn2ncc(Cl)c2C(N)=N1 (stereo not shown) [Compound 38]", "val": 6.22}
{"molecule": "Cc1nc(C(=O)Nc2ccc(F)c(C3(C)Cn4ncc(F)c4C(N)=N3)c2)co1 (stereo not shown) [Compound 34]", "val": 7.78}
{"molecule": "CC1(c2cc(NC(=O)c3ncc(Cl)cc3Cl)ccc2F)Cn2nccc2C(N)=N1 (single isomer, unassigned) [Compound 16]", "val": 7.74}
{"molecule": "CC1(c2cccc(NC(=O)c3ccc(C#N)cn3)c2)Cn2nccc2C(N)=N1 (single isomer, unassigned) [Compound 8]", "val": 6.13}
